Entries and their IC50
# Measured Target: Acetylcholinesterase (Rattus norvegicus, UniProt P37136)
# Sequence (P37136 whole entry): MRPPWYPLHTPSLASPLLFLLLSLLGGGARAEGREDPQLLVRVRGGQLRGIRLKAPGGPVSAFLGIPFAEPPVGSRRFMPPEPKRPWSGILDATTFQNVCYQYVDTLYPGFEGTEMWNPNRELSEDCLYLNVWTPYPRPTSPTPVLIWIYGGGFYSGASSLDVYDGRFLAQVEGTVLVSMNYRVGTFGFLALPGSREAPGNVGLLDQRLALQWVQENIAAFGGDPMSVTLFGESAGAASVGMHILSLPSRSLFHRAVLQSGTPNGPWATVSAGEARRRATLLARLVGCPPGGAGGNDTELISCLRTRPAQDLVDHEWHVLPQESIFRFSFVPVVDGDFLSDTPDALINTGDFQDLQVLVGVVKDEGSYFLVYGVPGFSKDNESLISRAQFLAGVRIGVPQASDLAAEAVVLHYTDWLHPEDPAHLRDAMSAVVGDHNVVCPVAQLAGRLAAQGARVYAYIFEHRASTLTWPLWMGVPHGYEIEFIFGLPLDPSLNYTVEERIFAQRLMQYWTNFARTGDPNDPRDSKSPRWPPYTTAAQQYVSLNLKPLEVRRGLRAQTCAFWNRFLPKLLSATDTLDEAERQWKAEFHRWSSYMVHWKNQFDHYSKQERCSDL
Your answer should be a plain number; it is taken to be in nM.

Below: 4 molecules and their reported IC50.
# Molecule, Measured Target, Unit Label, IC50
rows = [
    ("COc1cc2c(cc1OC)C(=O)C(Oc1cccc(CN3CCN(C)CC3)c1)C2 (stereo not given)", "Acetylcholinesterase (Rattus norvegicus, UniProt P37136)", "nM", 6410),
    ("COc1cc2c(cc1OC)C(=O)C(Oc1ccc(CN3CCCCC3)cc1)C2 (stereo not given)", "Acetylcholinesterase (Rattus norvegicus, UniProt P37136)", "nM", 150),
    ("CCN(CC)Cc1ccc(OC2Cc3cc(OC)c(OC)cc3C2=O)cc1 (stereo not given)", "Acetylcholinesterase (Rattus norvegicus, UniProt P37136)", "nM", 100),
    ("COc1cc2c(cc1OC)C(=O)C(Oc1ccc(CN(C)C)cc1)C2 (stereo not given)", "Acetylcholinesterase (Rattus norvegicus, UniProt P37136)", "nM", 210),
]

The record that follows has no IC50 shown yet.
Ask | So what IC50 did COc1cc2c(cc1OC)C(=O)C(Oc1cccc(CN3CCCCC3)c1)C2 (stereo not given) get with Acetylcholinesterase (Rattus norvegicus, UniProt P37136)?
Reply | 3180
